# tested.on: WIL-FL (Homo sapiens)
# assay.comment: Unlabeled LC Protease Sensitivity Assay (proteinase K)
# Type: biochemical
# test.parameters: small molecule 10 μM, WIL-FL 5 μM, proteinase K 50 nM, 2 hours at 37° C.
recorded.metric: Protection (fold protection of LC from protease)

- CCN(CC)c1ccc2c(C)c(CCOC(=O)NCc3cccc(-c4ccccc4O)c3)c(=O)oc2c1: C (C ≥ 0.6)
- CCc1cc(=O)oc2cc(N(CC)CC)ccc12: A (A < 0.3))
- Cc1cc(=O)oc2cc(C(=O)Nc3ccnc4ccccc34)ccc12: A (A < 0.3))
- CCN(CC)c1ccc2c(C)c(CCN3C(=O)NC4(CCN(c5ncccn5)C4)C3=O)c(=O)oc2c1 (centres unmarked): C (C ≥ 0.6)
- CCN(CC)c1ccc2c(C)c(CCN3CC4(CCN(c5nccn6ccnc56)CC4)NC3=O)c(=O)oc2c1: C (C ≥ 0.6)
- CCN(CC)c1ccc2c(C)c(CCN3C(=O)NC4(CCN(C(=O)c5ncc[nH]5)CC4)C3=O)c(=O)oc2c1: C (C ≥ 0.6)
- CCN(CC)c1ccc2c(C)c(CCOC(=O)NCc3ccc(F)c(C(N)=O)c3)c(=O)oc2c1: C (C ≥ 0.6)
- C#CCN(CC#C)c1ccc2c(C)cc(=O)oc2c1: B (3 ≤ B < 0.6)
- CCN(CC)c1ccc2c(C)c(CCNC(=O)NCc3ccccn3)c(=O)oc2c1: A (A < 0.3))
- CCN(CC)c1ccc2c(C)c(CCOC(=O)N3CC4(C3)CS(=O)(=O)C4)c(=O)oc2c1: B (3 ≤ B < 0.6)
- CCN(CC)c1ccc2c(C)c(CCOC(=O)N3CCN(c4ccccn4)CC3)c(=O)oc2c1: A (A < 0.3))
- CCN(CC)c1ccc2c(C)c(CCC(=O)NC)c(=O)oc2c1: A (A < 0.3))
- CCN(CC)c1ccc2c(C)c(CCOC(=O)NCc3cccc(CCC(=O)OC)c3)c(=O)oc2c1: A (A < 0.3))
- CCN(CC)c1ccc2c(C)c(CCN3C(=O)NC4(CCN(C(=O)c5ccncn5)C4)C3=O)c(=O)oc2c1 (centres unmarked): B (3 ≤ B < 0.6)
- CCN(CC)c1ccc2c(C)c(CCOC(=O)NCc3ccncc3)c(=O)oc2c1: B (3 ≤ B < 0.6)
- CCN(CC)c1ccc2c(C)c(CCOC(=O)NCc3ccc4nc[nH]c4c3)c(=O)oc2c1: C (C ≥ 0.6)
- C#CCN(CC1CC1)c1ccc2c(C)cc(=O)oc2c1: A (A < 0.3))

----------
# tested.on: WIL-FL (Homo sapiens, UniProt P01721)
# assay.comment: Unlabeled LC Protease Sensitivity Assay (proteinase K)
# Type: biochemical
# test.parameters: small molecule 10 μM, WIL-FL 5 μM, proteinase K 50 nM, 2 hours at 37° C.
recorded.metric: Protection (fold protection of LC from protease)

* CCN(CC)c1ccc2c(C)c(CCOC(=O)NCc3ccc(=O)[nH]c3)c(=O)oc2c1 | A (A < 0.3))
* Cc1cc(=O)oc2cc(C(=O)Nc3ccc4[nH]cnc4c3)ccc12 | A (A < 0.3))
* CCN(CC)c1ccc2c(C)c(CCNC(C)=O)c(=O)oc2c1 | A (A < 0.3))
* CCN(CC)c1ccc2c(C)c(CCOC(=O)NCC3CCNCC3)c(=O)oc2c1 | B (3 ≤ B < 0.6)
* Cc1cc(=O)oc2cc(C(=O)Nc3ccc4ccccc4c3)ccc12 | A (A < 0.3))
* CCN(C)c1ccc2c(C)cc(=O)oc2c1 | A (A < 0.3))
* CCN(CC)c1ccc2c(C)c(CCNC(=O)NCCc3ccc(O)cc3)c(=O)oc2c1 | B (3 ≤ B < 0.6)
* CCN(CCc1ccccc1)c1ccc2c(C)cc(=O)oc2c1 | A (A < 0.3))
* CCN(CC)c1ccc2c(C)c(CCOC(=O)N3CCN(S(=O)(=O)C4CC4)CC3)c(=O)oc2c1 | A (A < 0.3))
* O=C(CN1C(=O)CNC1=O)Nc1ccc(C(F)(F)F)cc1 | A (A < 0.3))
* Cc1cc(=O)oc2cc(NCCC(F)(F)F)ccc12 | A (A < 0.3))
* C#CCN(CC(=C)C)c1ccc2c(C)cc(=O)oc2c1 | A (A < 0.3))
* CCN(CC)c1ccc2c(C)c(CCOC(=O)NCc3cccc(CCC(=O)O)c3)c(=O)oc2c1 | A (A < 0.3))
* CCN(CC)c1ccc2c(C)c(CCOC(=O)NCc3ccc4cc[nH]c(=O)c4c3)c(=O)oc2c1 | B (3 ≤ B < 0.6)
* CCN(c1ccc2c(C)cc(=O)oc2c1)C(C)C | A (A < 0.3))
* CCN(CC)c1ccc2c(C)c(CCOC(=O)NCc3cccc(-c4nc[nH]n4)c3)c(=O)oc2c1 | C (C ≥ 0.6)
* CCN(CC)c1ccc2c(C)c(CCOC(=O)NCc3cccc(-c4cnccn4)c3)c(=O)oc2c1 | C (C ≥ 0.6)
* CCN(CC)c1ccc2c(C(F)(F)F)cc(=O)oc2c1 | A (A < 0.3))

----------
# tested.on: WIL-FL (Homo sapiens, UniProt P01721)
# assay.comment: Unlabeled LC Protease Sensitivity Assay (proteinase K)
# Type: biochemical
# test.parameters: small molecule 10 μM, WIL-FL 5 μM, proteinase K 50 nM, 2 hours at 37° C.
recorded.metric: Protection (fold protection of LC from protease)

* C#CCN(CC=C)c1ccc2c(C)cc(=O)oc2c1 [Compound 259] | A (A < 0.3))
* CCN(CC)c1ccc2c(C)c(CCOC(=O)NCc3ccco3)c(=O)oc2c1 [Compound 87] | B (3 ≤ B < 0.6)
* CCN(CC)c1ccc2c(C)c(CCOC(=O)N3CCC(CO)C3)c(=O)oc2c1 (centres unmarked) [Compound 106] | A (A < 0.3))
* CCN(CC)c1ccc2c(C)c(CCOC(=O)NCc3ccc(C(=O)O)cc3)c(=O)oc2c1 [Compound 119] | B (3 ≤ B < 0.6)

----------
# tested.on: WIL-FL (Homo sapiens)
# assay.comment: Unlabeled LC Protease Sensitivity Assay (proteinase K)
# Assay type: biochemical
# test.parameters: small molecule 10 μM, WIL-FL 5 μM, proteinase K 50 nM, 2 hours at 37° C.
recorded.metric: Protection (fold protection of LC from protease)

* CCN(CC)c1ccc2c(C)c(CCOC(=O)NCc3cccc(-c4ccc[nH]c4=O)c3)c(=O)oc2c1 | C (C ≥ 0.6)
* CCN(CC)c1ccc2c(C)c(CCOC(=O)NCc3cccc(-c4cncnc4)c3)c(=O)oc2c1 | B (3 ≤ B < 0.6)
* CCN(CC)c1ccc2c(C)c(CCOC(=O)NCc3cccc(CN(C)C)c3)c(=O)oc2c1 | C (C ≥ 0.6)
* CCN(CC)c1ccc2c(C)c(CCOC(=O)NCc3cccc(C(=O)O)c3)c(=O)oc2c1 | B (3 ≤ B < 0.6)
* Cc1cc(=O)oc2cc(C(=O)Nc3ccc4scnc4c3)ccc12 | A (A < 0.3))
* C#CCN(CCCF)c1ccc2c(C)cc(=O)oc2c1 | A (A < 0.3))
* CCN(CCF)c1ccc2c(C)cc(=O)oc2c1 | A (A < 0.3))
* Cc1cc(=O)oc2cc(C(=O)NCc3ccc4[nH]ccc4c3)ccc12 | A (A < 0.3))
* CCN(CC)c1ccc2c(CCCOC(=O)NCc3cccc(CCC(=O)O)c3)cc(=O)oc2c1 | A (A < 0.3))
* CCN(CC)c1ccc2c(C)c(CCNC(=O)NCc3ccccc3)c(=O)oc2c1 | C (C ≥ 0.6)
* Cc1cc(=O)oc2cc(C(=O)NCc3ccccn3)ccc12 | A (A < 0.3))
* CCN(CC)c1ccc2c(C)c(CCOC(=O)NCCCN(C)C)c(=O)oc2c1 | B (3 ≤ B < 0.6)
* CCN(CC)c1ccc2c(C)c(CCOC(=O)N3CC(F)(F)C3)c(=O)oc2c1 | A (A < 0.3))
* CCN(CC)c1ccc2c(C)c(CCN3C(=O)NC4(CCN(C(=O)c5ncc[nH]5)C4)C3=O)c(=O)oc2c1 (centres unmarked) | C (C ≥ 0.6)
* CCN(CC)c1ccc2c(C)c(CCNC(=O)NCCc3cnc[nH]3)c(=O)oc2c1 | B (3 ≤ B < 0.6)
* CCN(CC)c1ccc2c(C)c(CCN3C(=O)NC4(CCN(C(=O)c5cnccn5)CC4)C3=O)c(=O)oc2c1 | B (3 ≤ B < 0.6)
* CCN(CC)c1ccc2c(C)c(CCOC(=O)N3CCC(C)(O)C3)c(=O)oc2c1 (centres unmarked) | A (A < 0.3))

----------
# tested.on: WIL-FL (Homo sapiens, UniProt P01721)
# assay.comment: Unlabeled LC Protease Sensitivity Assay (proteinase K)
# Type: biochemical
# test.parameters: small molecule 10 μM, WIL-FL 5 μM, proteinase K 50 nM, 2 hours at 37° C.
recorded.metric: Protection (fold protection of LC from protease)

• CCN(CC)c1ccc2c(C)c(CCC(=O)NCCc3ccccc3)c(=O)oc2c1 [Compound 64] = A (A < 0.3))
• CCN(CC)c1ccc2c(C)c(CCNC(=O)OCc3cccnc3)c(=O)oc2c1 [Compound 100] = A (A < 0.3))
• CCN(CC)c1ccc2c(C)c(CCNC(=O)NCc3cc4ccccc4cn3)c(=O)oc2c1 [Compound 295] = B (3 ≤ B < 0.6)
• CCN(CC)c1ccc2c(C)c(CCOC(=O)NCc3cccc(C(=N)NO)c3)c(=O)oc2c1 [Compound 170] = C (C ≥ 0.6)
• CCN(CC)c1ccc2c(C)c(CCNC(=O)CCc3ccncc3)c(=O)oc2c1 [Compound 96] = A (A < 0.3))
• CCN(CC)c1ccc2c(C)c(CCN3C(=O)NC4(CCNC4)C3=O)c(=O)oc2c1 (centres unmarked) [Compound 179] = B (3 ≤ B < 0.6)
• CCN(CC)c1ccc2c(C)c(CCNC(=O)CCc3ccccc3)c(=O)oc2c1 [Compound 70] = A (A < 0.3))
• CCN(CC)c1ccc2c(C)c(CCN3C(=O)NC4(CCN(S(=O)(=O)c5cccnc5)C4)C3=O)c(=O)oc2c1 (centres unmarked) [Compound 202] = C (C ≥ 0.6)
• Cc1cc(=O)oc2cc(C(=O)O)ccc12 [Compound 225] = A (A < 0.3))
• C#CCN(CCC)c1ccc2c(C)cc(=O)oc2c1 [Compound 260] = A (A < 0.3))
• CCN(CC)c1ccc2c(C)c(CCNC(=O)NCc3ccc(-c4ccccc4)cc3)c(=O)oc2c1 [Compound 283] = A (A < 0.3))
• CCN(CC)c1ccc2c(C)c(CCOC(=O)NCCCc3ccccc3)c(=O)oc2c1 [Compound 81] = A (A < 0.3))
• Cc1cc(=O)oc2cc(OC(C)c3cnccn3)ccc12 (centres unmarked) [Compound 173] = A (A < 0.3))
• Cc1cc(=O)oc2cc(OC(c3ccccc3)c3ccccc3)ccc12 [Compound 42] = A (A < 0.3))
• CCN(CC)c1ccc2c(CCCOC(=O)NCc3cccc(CCC(=O)OC)c3)cc(=O)oc2c1 [Compound 306] = A (A < 0.3))
• CCN(CC)c1ccc2c(C)c(CCN3C(=O)NC4(CCN(c5ncnc6[nH]cnc56)CC4)C3=O)c(=O)oc2c1 [Compound 188] = C (C ≥ 0.6)
• CCN(CC)c1ccc2c(C)c(CCOC(=O)NCc3cnccn3)c(=O)oc2c1 [Compound 91] = B (3 ≤ B < 0.6)
• CCN(CC)c1ccc2c(C)c(CCOC(=O)N3CCC(Cc4cccnc4)CC3)c(=O)oc2c1 [Compound 118] = B (3 ≤ B < 0.6)
• CCN(CC)c1ccc2c(C)c(CCNC(=O)NCc3cc(F)cc(C(=O)O)c3)c(=O)oc2c1 [Compound 297] = A (A < 0.3))
• CCN(CC)c1ccc2c(C)c(CCOC(=O)NCc3ccc(Cl)nc3)c(=O)oc2c1 [Compound 97] = A (A < 0.3))
• Cc1cc(=O)oc2cc(NCc3ccoc3)ccc12 [Compound 29] = A (A < 0.3))
• CCN(CC)c1ccc2c(C)c(CCN3C(=O)NC4(CCN(c5ccc(C#N)cn5)CC4)C3=O)c(=O)oc2c1 [Compound 191] = A (A < 0.3))
• CCN(CC)c1ccc2c(C)c(CCC(=O)O)c(=O)oc2c1 [Compound 62] = A (A < 0.3))
• CCN(CC)c1ccc2c(C)cc(=O)[nH]c2c1 [Compound 25] = A (A < 0.3))
• Cc1cc(=O)oc2cc(OCCC(C)c3ccccc3)ccc12 (centres unmarked) [Compound 46] = A (A < 0.3))
• Cc1cc(=O)oc2cc(NCC#N)ccc12 [Compound 269] = A (A < 0.3))
• CCN(CC)c1ccc2c(C)c(CCC(=O)NCCCN(C)C)c(=O)oc2c1 [Compound 68] = A (A < 0.3))
• CCN(CC)c1ccc2c(C)c(CCC(=O)NCCc3ccncc3)c(=O)oc2c1 [Compound 76] = A (A < 0.3))
• Cc1cc(=O)oc2cc(OC(C)c3c(F)cccc3F)ccc12 (centres unmarked) [Compound 51] = A (A < 0.3))
• CCC(Oc1ccc2c(C)cc(=O)oc2c1)c1ccccc1 (centres unmarked) [Compound 41] = A (A < 0.3))
• CCN(CC)c1ccc2c(C)c(CCNC(=O)NCc3ccncc3)c(=O)oc2c1 [Compound 277] = B (3 ≤ B < 0.6)
• Cc1cc(=O)oc2cc(C(=O)Nc3ccc4ccccc4n3)ccc12 [Compound 233] = A (A < 0.3))
• CCN(CC)c1ccc2c(C)c(CCOC(=O)NCc3ccc(NC(C)=O)cn3)c(=O)oc2c1 [Compound 127] = B (3 ≤ B < 0.6)
• CCN(CC)c1ccc2c(C)c(CCOC(=O)NCc3cccc(S(N)(=O)=O)c3)c(=O)oc2c1 [Compound 149] = C (C ≥ 0.6)
• Cc1cc(=O)oc2cc(NCC3CC3)ccc12 [Compound 246] = A (A < 0.3))
